B1: Osa-1-4 twister ribozyme (parent)
chain: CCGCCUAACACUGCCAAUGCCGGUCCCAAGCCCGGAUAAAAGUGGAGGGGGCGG

Variants of: B1
procedure summary: self-cleavage, relative activity (ratio to wild type); higher = more cleavage; co-transcriptional
Classification field: enter T for self-cleavage values not below 0.05, F for values below it.

Consider the worked cases shown below.
>  <mutations>
G53C U43C

>  <classification>
T

$$$$
>  <mutations>
C14G U18G

>  <classification>
T

$$$$
>  <mutations>
C26U G23C

>  <classification>
F

$$$$

Decide: self-cleavage of A16G A39C >= 0.05? T

Exam item: decide whether the reported self-cleavage for A16C C52A is at least 0.05. T

Has C31A G50C a recorded self-cleavage greater than or equal to 0.05? F

// inclusive: self-cleavage at least 0.05? input: C20A G23U T
